- test_target: HLA-A*02:01
- method_description: IEDB peptide-MHC binding, purified MHC/competitive/radioactivity; filed as Kd, often an IC50 or EC50 that approximates it; bounds were set here for any values at or beyond the usual limits of such assays
- measurement_conditions: source organism: Hepatitis C virus (isolate 1)
quantity_measured: Kd

INSERT INTO measurements (construct_sequence, measured_result) VALUES
  ('ATDALMTGY', '1450 nM');

* * *

- test_target: HLA-A*03:01
- method_description: IEDB peptide-MHC binding, purified MHC/direct/fluorescence; filed as Kd, often an IC50 or EC50 that approximates it; bounds were set here for any values at or beyond the usual limits of such assays
- measurement_conditions: source organism: Vibrio vulnificus YJ016
quantity_measured: Kd

INSERT INTO measurements (construct_sequence, test_target, quantity_measured, measured_result) VALUES
  ('MKYVWPPIM', 'HLA-A*03:01', 'Kd', '≥ 20 µM');

* * *

- test_target: HLA-A*68:01
- method_description: IEDB peptide-MHC binding, purified MHC/competitive/radioactivity; filed as Kd, often an IC50 or EC50 that approximates it; bounds were set here for any values at or beyond the usual limits of such assays
- measurement_conditions: source organism: Triticum aestivum
pKd: −log10 of the molar value.
quantity_measured: pKd

INSERT INTO results (construct_sequence, measured_result) VALUES
  ('HAIILHQQQK', 7.98);

* * *

- test_target: HLA-C*14:02
- method_description: IEDB peptide-MHC binding, purified MHC/competitive/fluorescence; filed as Kd, often an IC50 or EC50 that approximates it; bounds were set here for any values at or beyond the usual limits of such assays
- measurement_conditions: source organism: Vibrio vulnificus YJ016
pKd: −log10 of the molar value.
quantity_measured: pKd

INSERT INTO measurements (construct_sequence, test_target, quantity_measured, measured_result) VALUES
  ('KMFNRASYF', 'HLA-C*14:02', 'pKd', 8.40);

* * *

Each entry below lists one item and its recorded pKd value.
- test_target: HLA-B*15:17
- method_description: IEDB peptide-MHC binding, purified MHC/competitive/fluorescence; filed as Kd, often an IC50 or EC50 that approximates it; bounds were set here for any values at or beyond the usual limits of such assays
- measurement_conditions: source organism: Homo sapiens
pKd: −log10 of the molar value.
quantity_measured: pKd

INSERT INTO assay_data (construct_sequence, test_target, quantity_measured, measured_result) VALUES
  ('YSDNEMLTH', 'HLA-B*15:17', 'pKd', '≤ 4.70'),
  ('SLFNWLWYE', 'HLA-B*15:17', 'pKd', '≤ 4.70');

* * *

- test_target: HLA-A*03:01
- method_description: IEDB peptide-MHC binding, purified MHC/competitive/radioactivity; filed as Kd, often an IC50 or EC50 that approximates it; bounds were set here for any values at or beyond the usual limits of such assays
- measurement_conditions: source organism: Triticum aestivum
pKd: −log10 of the molar value.
quantity_measured: pKd

INSERT INTO results (construct_sequence, test_target, measured_result) VALUES
  ('HAIILHQQQK', 'HLA-A*03:01', 5.90);

* * *

- test_target: HLA-A*30:01
- method_description: IEDB peptide-MHC binding, purified MHC/competitive/radioactivity; filed as Kd, often an IC50 or EC50 that approximates it; bounds were set here for any values at or beyond the usual limits of such assays
- measurement_conditions: source organism: Vaccinia virus Copenhagen
pKd: −log10 of the molar value.
Each entry below lists one item and its recorded pKd value.
quantity_measured: pKd

INSERT INTO measurements (construct_sequence, measured_result) VALUES
  ('IHFMREYWF', 7.35),
  ('CSRLQTCIK', 7.36),
  ('IVRDSMWYI', 7.71);
